As shown below, each of these compounds has a reported inhibition value.
test.protocol: HTRF signal interference by compounds, confirmation, artefact control for SUMOylation inhibitor project, biochemical, uHTS (AID 2069)
experimental.parameters: HTRF interference counterscreen, fluorescence, at 35 µM, active compounds read high
Among all 1,200 compounds or so, about 210 (18%) were called active. The list is a sample of the results.
Please respond with the number in % and leave the unit unwritten.

Reference set, count: 2
O=C(Nc1ccccc1-c1nc2ccccc2s1)c1cccnc1Cl 64
O=C(O)c1cc(Cl)c(Cl)cc1C(=O)Nc1cccc2ncccc12 2.4

Moving on to another compound below.
# inhibition (compound: Cc1nnc(Sc2cc(NCCCO)c([N+](=O)[O-])c3nonc23)s1 ) is -3.2

====

As shown below, each of these compounds has a reported inhibition value.
test.protocol: HTRF signal interference by compounds, confirmation, artefact control for SUMOylation inhibitor project, biochemical, uHTS (AID 2069)
experimental.parameters: HTRF interference counterscreen, fluorescence, at 35 µM, active compounds read high
Screen size: about 1,200 compounds; about 210 (18%) were called active. These entries were drawn from the full list.
Please respond with the number in % and leave the unit unwritten.

compound	unit.info	inhibition
COc1cccc(-c2[nH]nc3c2C(c2ccsc2)C(C#N)=C(N)O3)c1 (configuration not stated)	%	-11
COc1ccc(/C=C2/C(=O)N(c3ccccc3)N=C2C)cc1OC	%	-0.35
O=C(CN1C(=O)S/C(=C\c2ccccc2)C1=O)NNC(=O)c1ccccc1O	%	2.55

# inhibition (compound: CCOC(=O)N1CCN(C(=O)c2cccn3c(=O)c4cc(Br)ccc4nc23)CC1 ) is 49.9

# inhibition (compound: COc1ccccc1-n1cnc2c(c1=O)c1nc3ccccc3nc1n2-c1ccc(C)c(C)c1 ) is 2

# inhibition (compound: O=C(CNc1cccc2ccccc12)N/N=C/c1ccc([N+](=O)[O-])cc1 ) is -4

# inhibition (compound: N#Cc1cc2ccc(N3CCOCC3)cc2cc1C#N ) is 9.35

# inhibition (compound: CC(=O)c1ccc(NC(=S)Nc2cccc3ccccc23)cc1 ) is 14.1

# inhibition (compound: Cc1cccn2c(=O)c3cc(S(=O)(=O)c4ccccc4)c(=N)n(Cc4ccco4)c3nc12 ) is 5.25

# inhibition (compound: CCCCC[C@H](O)/C=C/[C@@H]1[C@@H](C/C=C\CCCC(=O)OC)[C@@H](O)C[C@H]1O ) is 23.6

# inhibition (compound: Cn1c2ccc(Cl)cc2c2nc3ccccc3nc21 ) is 21.9

# inhibition (compound: O=C(NCCNc1ccc2ccccc2c1)c1cccn2c(=O)c3sccc3nc12 ) is 5.05

# inhibition (compound: CCCCCc1c2c(cc(O)c1C(=O)O)OC(=O)c1c(cc(OC)cc1C(=O)CCCC)O2 ) is 11.2

# inhibition (compound: O=C(Nc1nnc(-c2ccccc2)o1)c1nc2ccccc2s1 ) is 11.1

# inhibition (compound: S=C(Nc1ccc2nsnc2c1)N1CCCCC1 ) is 16.2

# inhibition (compound: S=C(Nc1ccc2nsnc2c1)N1CCCCCC1 ) is 6.8

# inhibition (compound: C/C(=N\OCc1nc2ccccc2c(=O)n1/N=C/c1cc(C)cc([N+](=O)[O-])c1O)c1ccccc1 ) is -17

# inhibition (compound: O=C(c1cccn2c(=O)c3cc4ccccc4cc3nc12)N1CCN(c2ccccc2)CC1 ) is 7.35

# inhibition (compound: Cc1c(C(=O)O)c(C(=O)O)nc2ccc(N3CCOCC3)cc12 ) is 7.75

# inhibition (compound: COc1cccc(Cn2cccc(NC(=O)NC3CCCCC3)c2=O)c1 ) is -4.4

# inhibition (compound: CCOC(=O)N1CCN(C(=O)c2cccn3c(=O)c4cc(Cl)ccc4nc23)CC1 ) is 43.5

# inhibition (compound: COc1ccc(N=C2NC(=O)/C(=C\c3ccco3)S2)cc1 ) is 4.75

====

As shown below, each of these molecules has a reported inhibition value.
test.protocol: HTRF signal interference by compounds, confirmation, artefact control for SUMOylation inhibitor project, biochemical, uHTS (AID 2069)
experimental.parameters: HTRF interference counterscreen, fluorescence, at 35 µM, active compounds read high
About 210 (18%) of roughly 1,200 compounds were called active. Not all results are given here.
Please respond with the number in % and leave the unit unwritten.

Reference set, count: 4
molecule	unit.info	inhibition
CCN(CC)S(=O)(=O)c1ccc(O)c(NC(=O)c2cc(-c3cc(OC)c(OC)c(OC)c3)nc3ccccc23)c1	%	16.9
COC(=O)c1c(NC(=O)COC(=O)c2ccc(NC(=O)CC#N)cc2)sc2c1CCCCC2	%	4.25
Oc1ccc(/C=N/Nc2cc(N3CCCC3)nc(N3CCCC3)n2)cc1	%	6.25
Brc1ccc(C2Nc3cccc4cccc(c34)N2)o1	%	-8.65

# inhibition (molecule: COc1ccccc1CCNC(=O)CSc1ccc(-c2ccco2)nn1 ) is 14.2

# inhibition (molecule: CCCC(=O)NC(=S)Nc1cccc2c(O)cccc12 ) is 11.1

====

test.protocol: HTRF signal interference by compounds, confirmation, artefact control for SUMOylation inhibitor project, biochemical, uHTS (AID 2069)
experimental.parameters: HTRF interference counterscreen, fluorescence, at 35 µM, active compounds read high
The campaign covered roughly 1,200 compounds. About 210 (18%) were called active. The list is a sample of the results.
test.readout: inhibition (%)
Please respond with the number in % and leave the unit unwritten.

compound	test.readout	measured.result
O=C(Cn1c2ccccc2c(=O)c2ccccc21)N/N=C/c1cc([N+](=O)[O-])ccc1N1CCCCCC1	inhibition	10.9
COc1cc(/C=C2\C(=O)N(c3ccc(S(N)(=O)=O)cc3)N=C2C)ccc1OC(=O)c1ccco1	inhibition	19.1
O=C1c2nc3cc(-c4ccco4)[nH]n3c(=O)c2CN1C1CCCCC1	inhibition	29.8
CCOc1cc(/C=C2/C(=O)N(c3ccccc3)N=C2C)ccc1OC(=O)c1ccco1	inhibition	-12.2
CCCc1cc(=O)oc2cc(OCC(=O)Nc3ccc(S(N)(=O)=O)cc3)ccc12	inhibition	21.4
Oc1ccc(NCc2ccccc2OCc2ccccc2F)cc1	inhibition	-9.2
CN1CCc2cc3c(c4c2[C@H]1[C@H](O)c1ccccc1-4)OCO3	inhibition	1.95
N#CC1=C(N)Oc2n[nH]c(-c3cccs3)c2C1c1ccoc1 (stereo not given)	inhibition	-10.8
COc1ccc(/C=N/N=C2/CC(C)(C)Cc3n[nH]c(=O)cc32)cc1	inhibition	0.85

Moving on to another compound below.
# inhibition (compound: Cc1ccccc1N=Cc1cccc(O)c1O ) is -6.55

====

test.protocol: HTRF signal interference by compounds, confirmation, artefact control for SUMOylation inhibitor project, biochemical, uHTS (AID 2069)
experimental.parameters: HTRF interference counterscreen, fluorescence, at 35 µM
Out of some 1,200 compounds screened, about 210 (18%) were called active. Rule as the data show it: active = inhibition above about 30%; inactive = the rest. A selection follows.
A correct response names exactly one class from 1 (yes) = active, 0 (no) = inactive

Record excerpt, results attached:
compound	assigned.category
CCOC(=O)N1CCc2c(sc3c2c(=O)n(Cc2ccccc2)c(=O)n3CC(=O)NCCOC)C1	0 (no)
COc1ccc(-c2ccnc3nc(/N=C/N(C)C)nn23)cc1	1 (yes)
C=CCN1C(=O)N(CC=C)c2cccc3cccc1c23	0 (no)
CCOc1ccccc1Oc1c(C)oc2c(CN3CCN(C)CC3)c(O)ccc2c1=O	1 (yes)
CCOc1cc(C2c3c(oc4ccccc4c3=O)C(=O)N2c2nccs2)ccc1O (stereo not given)	0 (no)
C[C@@H]1CN=C2N(CCNC(=O)CCC3CCCCC3)[C@H](Cc3ccc(O)cc3)CN21	0 (no)
COCCNC(=O)CCC1CCN(Cc2ccc(-c3ccccc3)cc2)CC1	1 (yes)
CN(C)/C=N/c1nc2nccc(-c3ccc(F)cc3)n2n1	1 (yes)
Oc1ccc(N=Cc2ccc(OCc3ccccc3)cc2)cc1	0 (no)

Query: recorded result category for CC(=O)Nc1ccc(NC(=O)Cn2c(-c3ccc(F)cc3)cnc2SCC(=O)Nc2c(C)cccc2C)cc1 in this test
0 (no)

====

As shown below, each of these molecules has a reported inhibition value.
test.protocol: HTRF signal interference by compounds, confirmation, artefact control for SUMOylation inhibitor project, biochemical, uHTS (AID 2069)
experimental.parameters: HTRF interference counterscreen, fluorescence, at 35 µM, active compounds read high
Hit rate of the full screen: of about 1,200 compounds, about 210 (18%) were called active. The list is a sample of the results.
Please respond with the number in % and leave the unit unwritten.

Reference set, count: 5
S=C(Nc1ccc2nc(-c3ccccn3)c(-c3ccccn3)nc2c1)N1CCOCC1 10.8
COc1cc2c(C#N)c(N3CCCCC3)nc(N)c2c(N)n1 25.2
CCOc1cc2c(C#N)c(N3CCCCC3)nc(N)c2c(N)n1 20.6
O=C(O)c1ccc(/C=N/NC(=O)c2ccc(CN3c4cccc5cccc(c45)S3(=O)=O)cc2)cc1 18.2
CCOc1cc2c(C#N)c(N3CCOCC3)nc(N)c2c(N)n1 51.2

# inhibition (molecule: N#Cc1c(N2CCCCC2)nc(N)c2c(N)nc(SCC(=O)O)cc12 ) is 14.9

# inhibition (molecule: OCCNC(=S)Nc1ccc2nsnc2c1 ) is 10.1

# inhibition (molecule: Cn1c(-c2ccc(C=O)s2)nc2c3ccccc3c3ccccc3c21 ) is 22.3

# inhibition (molecule: COCCN(CCOC)c1nc(N)c2c(N)nc3c(c2c1C#N)CC(=O)N3Cc1ccc(Cl)cc1 ) is 27.9

# inhibition (molecule: O=C(Cc1cc(=O)[nH][nH]1)N/N=C/c1cccc2ccccc12 ) is -6.95

# inhibition (molecule: CCOc1cc2c(C#N)c(N3CCNCC3)nc(N)c2c(N)n1 ) is 47.2
